Sourced from the supplement of paper PMC10567573

B1: SPOPL (parent)
chain: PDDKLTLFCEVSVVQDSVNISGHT

- Variants of: B1
- Assay overview: protein stability index of a GFP-peptide fusion (GPS, HEK-293T) (PSI 1-6); higher = more stable;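 further: lentivirally expressed fusions sorted by FACS into six bins by GFP to DsRed ratio, PSI derived from sequencing read proportions per bin multiplied by bin number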
- Cond: c terminus: a fixed tail appended
Classification field: enter label 1 for protein stability index values not below 3, label 0 for values below it.

| Variant descriptor | Discrete label |
| --- | --- |
| L5I | label 0 |
| S17R | label 0 |
| E10C | label 0 |
| K4I | label 0 |
| D2G | label 0 |
| Q15R | label 0 |
| L7Q | label 1 |
| Q15N | label 0 |
| C9Q | label 1 |
| I20Q | label 1 |
| T6E | label 0 |
| T24A | label 0 |
| S12C | label 0 |
| D2M | label 0 |
| V11T | label 1 |
| D3A | label 0 |
| S21L | label 0 |
| V13D | label 1 |
| N19A | label 0 |
| T6W | label 1 |
| D3L | label 0 |
| F8I | label 0 |
| T24P | label 1 |
| F8A | label 1 |
| G22A | label 0 |
| F8T | label 0 |
| G22T | label 1 |
| C9P | label 1 |
| S21M | label 0 |
| V14G | label 0 |
| L7R | label 1 |
| L7T | label 1 |
| F8W | label 0 |
| Q15K | label 0 |
| V13R | label 1 |
| T6Q | label 0 |
| V11G | label 1 |
| V14E | label 1 |
| K4Y | label 0 |
| P1K | label 0 |
| V14P | label 1 |
| K4S | label 0 |
| V11F | label 0 |
| N19V | label 0 |
